Target: α-amylase (Sus scrofa, UniProt P00690)
Sequence (P00690 16-511): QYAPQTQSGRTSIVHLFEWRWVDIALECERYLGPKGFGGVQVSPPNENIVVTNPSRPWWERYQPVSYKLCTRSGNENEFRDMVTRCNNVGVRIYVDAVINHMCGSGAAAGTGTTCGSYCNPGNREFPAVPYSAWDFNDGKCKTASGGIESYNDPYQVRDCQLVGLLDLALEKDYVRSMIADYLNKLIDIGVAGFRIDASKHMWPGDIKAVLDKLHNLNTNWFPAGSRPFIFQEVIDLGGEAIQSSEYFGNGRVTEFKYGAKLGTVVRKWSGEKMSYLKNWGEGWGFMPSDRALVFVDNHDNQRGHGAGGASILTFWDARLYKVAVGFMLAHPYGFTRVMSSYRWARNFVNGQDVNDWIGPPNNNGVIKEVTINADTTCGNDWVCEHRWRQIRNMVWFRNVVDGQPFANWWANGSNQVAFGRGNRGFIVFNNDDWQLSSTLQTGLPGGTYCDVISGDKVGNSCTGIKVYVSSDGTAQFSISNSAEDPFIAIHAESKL
Test: FTIR secondary structure analysis of α-AMY complexes
Settings: enzyme–porphyrin molar ratio 1:2, amide I band
Recorded Metric: α-Helix
Write down the value, and be sure its unit follows.

Prompt: Item O=C(O)c1ccc(-c2c3nc(c(-c4ccc(C(=O)O)cc4)c4ccc([nH]4)c(-c4ccc(C(=O)O)cc4)c4nc(c(-c5ccc(C(=O)O)cc5)c5ccc2[nH]5)C=C4)C=C3)cc1.[Cu+2] [Cu–TCPP] has what recorded α-Helix?
Completion: 20.76 ± 0.05%

Prompt: Item Oc1ccc(-c2c3nc(c(-c4ccc(O)cc4)c4ccc([nH]4)c(-c4ccc(O)cc4)c4nc(c(-c5ccc(O)cc5)c5ccc2[nH]5)C=C4)C=C3)cc1 [THPP] has what recorded α-Helix?
Completion: 22.24 ± 0.06%

Prompt: Item O=C(O)c1ccc(-c2c3nc(c(-c4ccc(C(=O)O)cc4)c4ccc([nH]4)c(-c4ccc(C(=O)O)cc4)c4nc(c(-c5ccc(C(=O)O)cc5)c5ccc2[nH]5)C=C4)C=C3)cc1 [TCPP] has what recorded α-Helix?
Completion: 10.24 ± 0.02%

Prompt: Item O=C(O)c1ccc(-c2c3nc(c(-c4ccc(C(=O)O)cc4)c4ccc([nH]4)c(-c4ccc(C(=O)O)cc4)c4nc(c(-c5ccc(C(=O)O)cc5)c5ccc2[nH]5)C=C4)C=C3)cc1.[Ni+2] [Ni–TCPP] has what recorded α-Helix?
Completion: 20.76 ± 0.06%

Prompt: Item Nc1ccc(-c2c3nc(c(-c4ccc(N)cc4)c4ccc([nH]4)c(-c4ccc(N)cc4)c4nc(c(-c5ccc(N)cc5)c5ccc2[nH]5)C=C4)C=C3)cc1 [TAPP] has what recorded α-Helix?
Completion: 22.45 ± 0.07%

----------
Biological target: α-glucosidase (Saccharomyces cerevisiae)
Assay: Fluorescence quenching, binding and thermodynamics with α-glucosidase
Conditions: T 310 K
Recorded Metric: ΔG^0 (kcal/mol)
# output: bare number, implied unit kcal/mol

Examples with answers:
• O=C(O)c1ccc(-c2c3nc(c(-c4ccc(C(=O)O)cc4)c4ccc([nH]4)c(-c4ccc(C(=O)O)cc4)c4nc(c(-c5ccc(C(=O)O)cc5)c5ccc2[nH]5)C=C4)C=C3)cc1.[Ni+2] [Ni–TCPP] = -7.464
• O=C(O)c1ccc(-c2c3nc(c(-c4ccc(C(=O)O)cc4)c4ccc([nH]4)c(-c4ccc(C(=O)O)cc4)c4nc(c(-c5ccc(C(=O)O)cc5)c5ccc2[nH]5)C=C4)C=C3)cc1 [TCPP] = -7.075
• O=C(O)c1ccc(-c2c3nc(c(-c4ccc(C(=O)O)cc4)c4ccc([nH]4)c(-c4ccc(C(=O)O)cc4)c4nc(c(-c5ccc(C(=O)O)cc5)c5ccc2[nH]5)C=C4)C=C3)cc1.[Cu+2] [Cu–TCPP] = -6.859
• Oc1ccc(-c2c3nc(c(-c4ccc(O)cc4)c4ccc([nH]4)c(-c4ccc(O)cc4)c4nc(c(-c5ccc(O)cc5)c5ccc2[nH]5)C=C4)C=C3)cc1 [THPP] = -7.844

// switching to the query compound
Prompt: Item Nc1ccc(-c2c3nc(c(-c4ccc(N)cc4)c4ccc([nH]4)c(-c4ccc(N)cc4)c4nc(c(-c5ccc(N)cc5)c5ccc2[nH]5)C=C4)C=C3)cc1 [TAPP] has what recorded ΔG^0?
Completion: -6.826

----------
Form field: n (number of binding sites) (one value per entry).
Target: α-glucosidase (Saccharomyces cerevisiae, UniProt P53341)
Sequence (P53341 whole entry): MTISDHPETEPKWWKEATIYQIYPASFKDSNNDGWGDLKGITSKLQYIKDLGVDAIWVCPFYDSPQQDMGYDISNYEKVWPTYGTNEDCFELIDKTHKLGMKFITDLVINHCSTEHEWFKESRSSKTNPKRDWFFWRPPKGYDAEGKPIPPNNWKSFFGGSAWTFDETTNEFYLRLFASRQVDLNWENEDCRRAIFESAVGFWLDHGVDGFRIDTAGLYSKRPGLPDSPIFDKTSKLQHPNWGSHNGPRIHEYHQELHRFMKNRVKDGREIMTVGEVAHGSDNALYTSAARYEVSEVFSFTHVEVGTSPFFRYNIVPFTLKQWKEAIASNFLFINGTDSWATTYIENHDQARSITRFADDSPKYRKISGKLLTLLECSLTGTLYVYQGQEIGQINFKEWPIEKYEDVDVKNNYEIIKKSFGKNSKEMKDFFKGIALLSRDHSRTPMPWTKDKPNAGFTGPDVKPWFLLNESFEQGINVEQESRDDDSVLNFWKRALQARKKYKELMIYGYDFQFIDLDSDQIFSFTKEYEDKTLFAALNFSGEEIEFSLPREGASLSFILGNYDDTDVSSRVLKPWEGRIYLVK
Experiment: Fluorescence quenching, binding and thermodynamics with α-glucosidase
Conditions: T 304 K

- O=C(O)c1ccc(-c2c3nc(c(-c4ccc(C(=O)O)cc4)c4ccc([nH]4)c(-c4ccc(C(=O)O)cc4)c4nc(c(-c5ccc(C(=O)O)cc5)c5ccc2[nH]5)C=C4)C=C3)cc1.[Ni+2]: 1.04

Prompt: Item Oc1ccc(-c2c3nc(c(-c4ccc(O)cc4)c4ccc([nH]4)c(-c4ccc(O)cc4)c4nc(c(-c5ccc(O)cc5)c5ccc2[nH]5)C=C4)C=C3)cc1 has what recorded n (number of binding sites)?
Completion: 1.23

Prompt: Item O=C(O)c1ccc(-c2c3nc(c(-c4ccc(C(=O)O)cc4)c4ccc([nH]4)c(-c4ccc(C(=O)O)cc4)c4nc(c(-c5ccc(C(=O)O)cc5)c5ccc2[nH]5)C=C4)C=C3)cc1 has what recorded n (number of binding sites)?
Completion: 1.19

Prompt: Item Nc1ccc(-c2c3nc(c(-c4ccc(N)cc4)c4ccc([nH]4)c(-c4ccc(N)cc4)c4nc(c(-c5ccc(N)cc5)c5ccc2[nH]5)C=C4)C=C3)cc1 has what recorded n (number of binding sites)?
Completion: 1.09

Prompt: Item O=C(O)c1ccc(-c2c3nc(c(-c4ccc(C(=O)O)cc4)c4ccc([nH]4)c(-c4ccc(C(=O)O)cc4)c4nc(c(-c5ccc(C(=O)O)cc5)c5ccc2[nH]5)C=C4)C=C3)cc1.[Cu+2] has what recorded n (number of binding sites)?
Completion: 1.25
